I'd appreciate it if you could supply EC50 values for the items below.
system.tested: rat mGluR5 (Rattus norvegicus, UniProt P31424)
Sequence (P31424 21-1171 isoform P31424-2 limits assumed): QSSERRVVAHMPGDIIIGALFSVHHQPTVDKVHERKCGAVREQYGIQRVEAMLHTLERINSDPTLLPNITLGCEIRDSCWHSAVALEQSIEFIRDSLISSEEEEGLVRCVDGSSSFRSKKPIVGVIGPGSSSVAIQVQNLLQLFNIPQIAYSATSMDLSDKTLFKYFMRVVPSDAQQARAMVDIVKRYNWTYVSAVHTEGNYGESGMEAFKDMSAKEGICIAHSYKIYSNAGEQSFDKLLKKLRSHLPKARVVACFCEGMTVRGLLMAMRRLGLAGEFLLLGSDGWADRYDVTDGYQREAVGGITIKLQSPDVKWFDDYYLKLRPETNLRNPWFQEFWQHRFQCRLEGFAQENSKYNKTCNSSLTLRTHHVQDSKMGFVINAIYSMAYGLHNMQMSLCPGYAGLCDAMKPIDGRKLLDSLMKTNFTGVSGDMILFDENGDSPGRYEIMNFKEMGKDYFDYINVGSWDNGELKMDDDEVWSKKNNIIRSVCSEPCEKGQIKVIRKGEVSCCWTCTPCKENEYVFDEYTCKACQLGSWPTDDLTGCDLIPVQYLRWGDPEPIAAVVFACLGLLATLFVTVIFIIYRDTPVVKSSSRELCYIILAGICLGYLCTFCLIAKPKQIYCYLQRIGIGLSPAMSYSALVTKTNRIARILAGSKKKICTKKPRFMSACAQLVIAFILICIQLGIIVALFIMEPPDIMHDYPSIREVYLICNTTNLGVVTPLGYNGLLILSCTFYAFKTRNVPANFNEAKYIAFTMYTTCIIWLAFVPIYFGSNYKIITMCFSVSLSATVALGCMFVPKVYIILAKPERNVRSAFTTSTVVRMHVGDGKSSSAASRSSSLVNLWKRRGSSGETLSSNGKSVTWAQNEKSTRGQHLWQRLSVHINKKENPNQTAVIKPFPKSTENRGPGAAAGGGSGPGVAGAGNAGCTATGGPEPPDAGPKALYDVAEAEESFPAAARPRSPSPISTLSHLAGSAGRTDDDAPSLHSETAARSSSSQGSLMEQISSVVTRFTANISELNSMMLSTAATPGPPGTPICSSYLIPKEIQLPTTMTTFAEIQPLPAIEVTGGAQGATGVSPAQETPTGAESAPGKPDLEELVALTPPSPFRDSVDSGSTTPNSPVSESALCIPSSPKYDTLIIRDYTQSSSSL
protocol.notes: mGluR5 assay on HEK-expressing rat mGluR5 (fluorescent cell based Ca2+ mobilization assay)
recorded.conditions: HEK-293 cells stably expressing rat mGluR5; no co-addition of glutamate; mean of at least three independent experiments in duplicate; read-out: Ca2+ Flux (mean EC50)

O=C(NCc1ccc(F)cc1)O[C@H]1CCCN(C(=O)c2ccc(F)cc2)C1: 1000 to 10000 nM
O=C(Nc1ccc(F)cc1)O[C@H]1CCCN(C(=O)c2ccc(F)cc2)C1: 1000 to 10000 nM
COc1ccc(NC(=O)O[C@H]2CCCN(C(=O)c3ccc(F)cc3)C2)cc1: 1000 to 10000 nM
O=C(Nc1ccncc1)O[C@H]1CCCN(C(=O)c2ccc(F)cc2)C1: 1000 to 10000 nM

Quick batch: EC50 for everything below.
1. O=C(Nc1ccccc1)OC1CCN(C(=O)c2ccc(F)cc2)C1 (stereo not drawn)
2. O=C(Nc1ccc(Cl)cc1)O[C@H]1CCCN(C(=O)c2ccc(F)cc2)C1
3. O=C(Nc1ccccc1F)O[C@H]1CCCN(C(=O)c2ccc(F)cc2)C1
4. O=C(Nc1ccccc1)O[C@H]1CCCN(C(=O)c2ccc(F)cc2)C1
5. O=C(NC1CCCCC1)O[C@H]1CCCN(C(=O)c2ccc(F)cc2)C1
6. O=C(NC1CCCC1)O[C@H]1CCCN(C(=O)c2ccc(F)cc2)C1
7. O=C(Nc1cccc(F)c1)O[C@H]1CCCN(C(=O)c2ccc(F)cc2)C1
8. O=C(Nc1ccc(F)cc1)N[C@H]1CCCN(C(=O)c2ccc(F)cc2)C1

1: 1000 to 10000 nM; 2: 1000 to 10000 nM; 3: < 1000 nM; 4: < 1000 nM; 5: 1000 to 10000 nM; 6: > 10000 nM; 7: < 1000 nM; 8: 1000 to 10000 nM

----------
system.tested: mGluR5 (Rattus norvegicus)
Construct: positive allosteric modulators of mGluR5 receptors in native preparations; endogenous in cells
Sequence (P31424 21-1203): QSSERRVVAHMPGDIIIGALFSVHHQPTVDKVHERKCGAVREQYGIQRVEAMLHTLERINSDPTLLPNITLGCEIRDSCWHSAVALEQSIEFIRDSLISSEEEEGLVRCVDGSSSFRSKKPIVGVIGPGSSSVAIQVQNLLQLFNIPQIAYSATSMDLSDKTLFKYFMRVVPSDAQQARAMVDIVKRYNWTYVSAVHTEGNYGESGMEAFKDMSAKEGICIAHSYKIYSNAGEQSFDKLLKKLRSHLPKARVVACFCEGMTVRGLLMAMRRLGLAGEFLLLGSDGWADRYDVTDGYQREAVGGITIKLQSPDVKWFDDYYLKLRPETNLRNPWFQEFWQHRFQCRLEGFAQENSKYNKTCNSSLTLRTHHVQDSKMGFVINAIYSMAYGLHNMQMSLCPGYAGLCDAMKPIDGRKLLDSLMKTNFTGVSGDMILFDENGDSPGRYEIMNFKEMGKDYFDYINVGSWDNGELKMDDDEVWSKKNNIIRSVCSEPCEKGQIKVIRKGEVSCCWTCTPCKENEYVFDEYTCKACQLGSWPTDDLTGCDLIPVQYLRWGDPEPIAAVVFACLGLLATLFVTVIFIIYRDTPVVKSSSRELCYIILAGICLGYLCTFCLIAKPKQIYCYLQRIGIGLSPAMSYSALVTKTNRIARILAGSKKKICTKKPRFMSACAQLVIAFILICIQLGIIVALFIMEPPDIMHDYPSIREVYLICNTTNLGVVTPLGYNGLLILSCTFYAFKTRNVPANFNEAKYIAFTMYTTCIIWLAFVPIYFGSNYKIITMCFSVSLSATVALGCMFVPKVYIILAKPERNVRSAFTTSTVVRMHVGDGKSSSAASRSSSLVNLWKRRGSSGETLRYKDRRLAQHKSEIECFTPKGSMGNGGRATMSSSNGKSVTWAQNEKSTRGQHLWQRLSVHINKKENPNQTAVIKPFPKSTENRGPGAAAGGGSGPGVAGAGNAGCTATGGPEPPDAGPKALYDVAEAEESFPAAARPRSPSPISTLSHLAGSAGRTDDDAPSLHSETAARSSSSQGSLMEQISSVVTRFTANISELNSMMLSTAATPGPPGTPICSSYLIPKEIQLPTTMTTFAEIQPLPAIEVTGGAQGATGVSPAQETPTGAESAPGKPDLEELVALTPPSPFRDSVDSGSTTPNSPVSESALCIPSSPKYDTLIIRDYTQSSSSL
protocol.notes: mGluR5 binding assay ([3H]-MPEP, rat brain membranes)
recorded.conditions: 3 nM [3H]-MPEP, rat cortex membranes, 1 h at 4° C.; read-out: IC50, inhibition of [3H]-MPEP binding
recorded.endpoint: IC50

Please give measured IC50 of the following entry: `O=C(Nc1ccc(F)cc1)O[C@H]1CCCN(C(=O)c2ccc(F)cc2)C1` < 30 µM
